Values from ChEMBL document CHEMBL5291721

Observed AC50, system Adenosine receptor A3 (Homo sapiens). Also: assay procedure not described here.

INSERT INTO measurements (molecule, quantity_measured, result) VALUES
  ('O=C1CN=C(c2ccccc2)c2cc(Cl)ccc2N1CC(F)(F)F [HALAZEPAM]', 'AC50', '26 µM'),
  ('C[C@]12CCC(=O)C=C1CC[C@@H]1[C@@H]2CC[C@@]2(C)[C@H]1CC[C@]2(C)O [METHYLTESTOSTERONE]', 'AC50', '> 30 µM'),
  ('CC(N)Cc1ccccc1 (stereo not given) [AMPHETAMINE]', 'AC50', '> 30 µM'),
  ('Cc1cccc(C)c1OCC(C)N (stereo not given) [MEXILETINE]', 'AC50', '> 30 µM'),
  ('CO/N=C(\C(=O)N[C@@H]1C(=O)N2C(C(=O)[O-])=C(C[N+]3(C)CCCC3)CS[C@H]12)c1csc(N)n1', 'AC50', '> 300 µM');

Input: Find AC50 for CN1CC[C@]23CCCC[C@H]2[C@H]1Cc1ccc(O)cc13 [LEVORPHANOL] on Adenosine receptor A3 (Homo sapiens) and write it down.
Sequence (P0DMS8 whole entry): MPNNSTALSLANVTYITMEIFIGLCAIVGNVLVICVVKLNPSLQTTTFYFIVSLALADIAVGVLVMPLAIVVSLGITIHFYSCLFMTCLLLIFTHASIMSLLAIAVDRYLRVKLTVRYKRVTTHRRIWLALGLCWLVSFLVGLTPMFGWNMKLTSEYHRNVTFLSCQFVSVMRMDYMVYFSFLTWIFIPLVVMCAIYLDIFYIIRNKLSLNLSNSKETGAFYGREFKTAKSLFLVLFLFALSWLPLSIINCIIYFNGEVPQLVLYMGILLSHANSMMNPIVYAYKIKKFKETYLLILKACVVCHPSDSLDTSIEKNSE
Output: > 10 µM

Input: Supply AC50 measured with Adenosine receptor A3 (Homo sapiens) for `C=C1CC[C@@]2(O)[C@H]3Cc4ccc(O)c5c4[C@@]2(CCN3CC2CC2)[C@H]1O5` .
Output: > 30 µM

Input: Please look at Cc1ccc(C(=O)c2cc(O)c(O)c([N+](=O)[O-])c2)cc1 [TOLCAPONE] and tell me its recorded AC50 on Adenosine receptor A3 (Homo sapiens).
Output: 11.9 µM

Input: Specify AC50 for CN1C(=O)CC(c2ccccc2)C1=O (stereo not given) [PHENSUXIMIDE] , system Adenosine receptor A3 (Homo sapiens). Also: assay procedure not described here.
Output: > 10 µM

Input: Provide AC50, recorded with Adenosine receptor A3 (Homo sapiens), of CCC[C@@H]1C[C@@H](C(=O)N[C@@H]([C@H]2O[C@H](SC)[C@H](O)[C@@H](O)[C@H]2O)[C@H](C)Cl)N(C)C1 [CLINDAMYCIN]
Output: > 30 µM

====

Target: Muscarinic acetylcholine receptor M2 (Homo sapiens, UniProt P08172); also: assay procedure not described here
Sequence (P08172 whole entry): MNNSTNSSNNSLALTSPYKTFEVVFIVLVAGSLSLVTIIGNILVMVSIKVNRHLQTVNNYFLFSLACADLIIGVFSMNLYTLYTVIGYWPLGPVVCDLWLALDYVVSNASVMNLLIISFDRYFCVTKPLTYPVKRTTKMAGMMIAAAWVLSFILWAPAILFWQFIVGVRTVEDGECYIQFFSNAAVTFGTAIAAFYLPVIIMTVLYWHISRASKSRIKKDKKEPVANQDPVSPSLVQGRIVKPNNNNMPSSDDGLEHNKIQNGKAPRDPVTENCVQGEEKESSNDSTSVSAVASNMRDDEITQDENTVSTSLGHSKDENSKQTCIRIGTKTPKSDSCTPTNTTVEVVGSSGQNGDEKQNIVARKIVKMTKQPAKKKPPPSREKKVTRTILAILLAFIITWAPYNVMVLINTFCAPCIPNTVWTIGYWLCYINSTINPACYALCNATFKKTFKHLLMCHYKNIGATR
Assay type: functional, cell-based
Listing of entries alongside the reported AC50.

Solved entries:
INSERT INTO results (compound, result) VALUES
  ('CCN1CCC[C@H]1CNC(=O)c1cc(S(N)(=O)=O)ccc1OC [LEVOSULPIRIDE]', '> 10 µM'),
  ('CN(C)CCCN1c2ccccc2Sc2ccccc21', '> 10 µM');

Now for the compound whose AC50 we want.
Input: State, for Muscarinic acetylcholine receptor M2 (Homo sapiens, UniProt P08172), measured AC50 of the compound listed here: `CC(C)(C(=O)c1cccnc1)c1cccnc1`
Output: > 10 µM

====

# AC50 annotations
Target: 5-hydroxytryptamine receptor 2B (Homo sapiens); also: assay procedure not described here
Sequence (P41595 whole entry): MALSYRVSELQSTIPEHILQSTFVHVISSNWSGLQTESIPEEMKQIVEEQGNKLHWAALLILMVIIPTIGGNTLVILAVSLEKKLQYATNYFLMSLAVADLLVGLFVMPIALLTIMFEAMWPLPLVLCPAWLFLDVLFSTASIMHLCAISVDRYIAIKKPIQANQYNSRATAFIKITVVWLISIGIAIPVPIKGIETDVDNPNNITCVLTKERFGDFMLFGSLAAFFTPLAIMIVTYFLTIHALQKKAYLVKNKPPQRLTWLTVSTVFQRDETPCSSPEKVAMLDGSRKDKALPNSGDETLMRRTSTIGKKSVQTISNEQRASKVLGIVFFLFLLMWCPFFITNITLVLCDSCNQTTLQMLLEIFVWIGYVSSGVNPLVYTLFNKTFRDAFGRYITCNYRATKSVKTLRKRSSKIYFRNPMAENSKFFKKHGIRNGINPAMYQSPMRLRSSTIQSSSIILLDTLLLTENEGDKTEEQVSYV
Assay type: functional, cell-based

Guide cases for AC50, answers given:
INSERT INTO results (compound, tgt, result) VALUES
  ('C=C1C[C@@H]2[C@H](CC[C@]3(C)C(=O)CC[C@@H]23)[C@@]2(C)C=CC(=O)C=C12 [EXEMESTANE]', '5-hydroxytryptamine receptor 2B (Homo sapiens)', '36 µM'),
  ('CCN(CC)CCNC(=O)c1cc(Cl)c(N)cc1OC [METOCLOPRAMIDE]', '5-hydroxytryptamine receptor 2B (Homo sapiens)', '4.3 µM'),
  ('CC(=O)OCC(=O)[C@@]1(O)CC[C@H]2[C@@H]3CCC4=CC(=O)CC[C@]4(C)[C@H]3C(=O)C[C@@]21C [CORTISONE ACETATE]', '5-hydroxytryptamine receptor 2B (Homo sapiens)', '> 30 µM'),
  ('N[C@@H](C(=O)N[C@@H]1C(=O)N2C(C(=O)O)=C(Cl)CS[C@H]12)c1ccccc1 [CEFACLOR ANHYDROUS]', '5-hydroxytryptamine receptor 2B (Homo sapiens)', '> 30 µM'),
  ('O=C(OCCN1CCOCC1)c1cccnc1Nc1cccc(C(F)(F)F)c1 [MORNIFLUMATE]', '5-hydroxytryptamine receptor 2B (Homo sapiens)', '10 µM'),
  ('CN(C)[C@@H]1C(O)=C(C(N)=O)C(=O)[C@@]2(O)C(O)=C3C(=O)c4c(O)ccc(Cl)c4[C@@H](O)[C@H]3C[C@@H]12 [DEMECLOCYCLINE]', '5-hydroxytryptamine receptor 2B (Homo sapiens)', '> 10 µM'),
  ('CCOC(=O)[C@H](CCc1ccccc1)N[C@H]1CCCN2CCC[C@@H](C(=O)O)N2C1=O [CILAZAPRIL]', '5-hydroxytryptamine receptor 2B (Homo sapiens)', '> 30 µM'),
  ('CCc1ccc(CCOc2ccc(CC3SC(=O)NC3=O)cc2)nc1 (stereo not drawn) [PIOGLITAZONE]', '5-hydroxytryptamine receptor 2B (Homo sapiens)', '> 10 µM'),
  ('CCCCCCC(C)(C)c1cc(O)c2c(c1)OC(C)(C)C1CCC(=O)CC21 (stereo not drawn) [NABILONE]', '5-hydroxytryptamine receptor 2B (Homo sapiens)', '> 30 µM'),
  ('[H]/N=C(/N)c1ccc(NCc2nc3cc(C(=O)N(CCC(=O)O)c4ccccn4)ccc3n2C)cc1 [DABIGATRAN]', '5-hydroxytryptamine receptor 2B (Homo sapiens)', '> 30 µM');

Input: Indicate the recorded AC50 value for this compound: CN1C(=O)CC(=O)N(c2ccccc2)c2cc(Cl)ccc21 [CLOBAZAM]
Output: > 10 µM

Input: Quick one: give measured AC50 for NC(=O)C[S+]([O-])C(c1ccccc1)c1ccccc1 (stereo not drawn) [MODAFINIL]
Output: > 10 µM

Input: Indicate the recorded AC50 value for this compound: CN1CCN(C(=O)OC2c3nccnc3C(=O)N2c2ccc(Cl)cn2)CC1 (stereo not drawn) [ZOPICLONE]
Output: > 10 µM

====

Notes on AC50 obtained with Sodium-dependent noradrenaline transporter (Homo sapiens, UniProt P23975).
Sequence (P23975 whole entry): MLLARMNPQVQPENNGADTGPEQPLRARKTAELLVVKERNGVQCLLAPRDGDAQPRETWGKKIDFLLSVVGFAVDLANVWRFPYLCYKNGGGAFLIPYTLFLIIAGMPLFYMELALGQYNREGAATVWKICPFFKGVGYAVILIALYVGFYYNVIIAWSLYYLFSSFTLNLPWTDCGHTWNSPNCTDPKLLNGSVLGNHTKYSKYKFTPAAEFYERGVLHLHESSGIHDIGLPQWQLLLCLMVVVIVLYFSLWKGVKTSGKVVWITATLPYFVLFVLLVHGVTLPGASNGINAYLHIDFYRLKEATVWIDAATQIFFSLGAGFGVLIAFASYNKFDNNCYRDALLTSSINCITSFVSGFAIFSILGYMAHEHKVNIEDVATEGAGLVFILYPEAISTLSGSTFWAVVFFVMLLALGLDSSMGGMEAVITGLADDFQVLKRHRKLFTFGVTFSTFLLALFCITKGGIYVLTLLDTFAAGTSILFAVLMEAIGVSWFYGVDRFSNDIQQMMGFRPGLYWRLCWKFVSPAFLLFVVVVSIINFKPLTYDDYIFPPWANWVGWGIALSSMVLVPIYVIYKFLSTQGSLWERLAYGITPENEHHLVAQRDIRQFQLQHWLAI

Input: Quote AC50 reported for `Cc1nc2ccc(CN(C)c3ccc(C(=O)N[C@@H](CCC(=O)O)C(=O)O)s3)cc2c(=O)[nH]1` please.
Output: > 30 µM

Input: Note AC50 for the molecule shown: `C1COC(NC(C2CC2)C2CC2)=N1`
Output: > 30 µM

Input: Report AC50 for O=C(C[S+]([O-])C(c1ccccc1)c1ccccc1)NO (stereo not drawn)
Output: > 30 µM

Input: Output AC50 of N[C@@H](C(=O)N[C@@H]1C(=O)N2C(C(=O)O)=C(Cl)CS[C@H]12)c1ccccc1 [CEFACLOR ANHYDROUS]
Output: > 30 µM

Input: Give the reported value of AC50 for this record: `CN(C)[C@@H]1C(O)=C(C(N)=O)C(=O)[C@@]2(O)C(O)=C3C(=O)c4c(O)ccc(Cl)c4[C@@H](O)[C@H]3C[C@@H]12`
Output: > 10 µM

Input: Read the entry `C[N+](C)(C)CCOC(N)=O` and write its reported AC50.
Output: > 10 µM

Input: Look up AC50 of `C=C1CC[C@@]2(O)[C@H]3Cc4ccc(O)c5c4[C@@]2(CCN3CC2CC2)[C@H]1O5` and report it.
Output: > 30 µM

Input: Indicate the recorded AC50 value for this molecule: CC(C)NCC(O)COc1ccc(COCCOC(C)C)cc1 (stereo not drawn)
Output: > 10 µM

Input: Identify AC50 associated with the molecule `O=C(NC[C@H]1CN(c2ccc(N3CCOCC3=O)cc2)C(=O)O1)c1ccc(Cl)s1`
Output: > 30 µM

Input: Respond only with AC50 recorded for `COC(=O)[C@@H]1CC2=CC(=O)CC[C@]2(C)[C@@]23O[C@@H]2C[C@@]2(C)[C@@H](CC[C@@]24CCC(=O)O4)[C@H]13`
Output: > 30 µM

Input: Specify measured AC50 for O=C(Nc1ccccc1)OCC(CN1CCCCC1)OC(=O)Nc1ccccc1 (stereo not drawn) .
Output: 1.1 µM

Input: Consider the molecule CN1C(=O)CC(C)(c2ccccc2)C1=O (stereo not drawn) [METHSUXIMIDE] . State its measured AC50.
Output: > 10 µM

Input: Answer with the recorded AC50 of CC(=O)OCC(=O)[C@@]12OC3(CCCC3)O[C@@H]1C[C@H]1[C@@H]3CCC4=CC(=O)C=C[C@]4(C)[C@@]3(F)[C@@H](O)C[C@@]12C [AMCINONIDE] only.
Output: > 10 µM
